solubility at 2 h values by entry
# assay_overview: Solubility determination in water (Example 9)
# Type: physicochemical
# measurement_parameters: thermodynamic from solid; water, ambient temperature, sample point 2 h, maximal possible concentration 10 mg/mL

Cn1cc(-c2ccc(=O)n(Cc3cccc(-c4ncc(OCCN5CCOCC5)cn4)c3)n2)cn1.O=P(O)(O)O [dihydrogenphosphate]    > 10000 µg/mL

Proceed to the following item.
Problem: // query solubility at 2 h value for entry Cn1cc(-c2ccc(=O)n(Cc3cccc(-c4ncc(OCCN5CCOCC5)cn4)c3)n2)cn1 [free base]
Solution: 156 µg/mL

----------
# assay_overview: physchem
# measurement_parameters: organic solvent or mixture, thermodynamic from solid
measurement_name: solubility at 2 h (mg/mL)
Please state the figure in mg/mL; there is no need to write the unit.

Problem: Fill in: solubility at 2 h of "Cn1cc(-c2ccc(=O)n(Cc3cccc(-c4ncc(OCCN5CCOCC5)cn4)c3)n2)cn1.O=P(O)(O)O" is ___
Solution: 10.6

----------
# assay_overview: Solubility determination in water (Example 9)
# Assay type: physicochemical
# measurement_parameters: thermodynamic from solid; water, ambient temperature, sample point 1 h, maximal possible concentration 10 mg/mL
measurement_name: solubility at 1 h (µg/mL)
Give the value in µg/mL but do not write µg/mL after it.

Cn1cc(-c2ccc(=O)n(Cc3cccc(-c4ncc(OCCN5CCOCC5)cn4)c3)n2)cn1 [free base]    167

Now, please, on to the next compound.
Problem: What does the record list as solubility at 1 h for Cn1cc(-c2ccc(=O)n(Cc3cccc(-c4ncc(OCCN5CCOCC5)cn4)c3)n2)cn1.O=P(O)(O)O [dihydrogenphosphate] ?
Solution: 9860
